IC50 values for O-acyltransferase (Oryctolagus cuniculus), compiled from several publications.
Reply with the number, then its unit.

Answered examples (5):
sample_smiles=CCCCCCCCCCCCc1n[nH]c(NC(=O)Nc2c(C(C)C)cccc2C(C)C)n1 value_observed="4200 nM"
sample_smiles=CSc1cc(C)nc(SC)c1NC(=O)N(Cc1ccc(-c2cc[nH]n2)cc1)C1CCCCCC1 value_observed="100 nM"
sample_smiles=O=C(Nc1c(F)cc(F)cc1F)N(Cc1cccc(-c2cc[nH]n2)c1)C1CCCCCC1 value_observed="22 nM"
sample_smiles=CSc1cc(C)nc(SC)c1NC(=O)N(Cc1ccccc1)Cc1cccc(-c2ccn(C)n2)c1 value_observed="73 nM"
sample_smiles=Cc1cc(C)c(NC(=O)N(Cc2cccc(-c3cc[nH]n3)c2)C2CCCC2)c(C)c1 value_observed="22 nM"

Considering CCCCCCCCCCc1sc(NC(=O)Nc2c(C(C)C)cccc2C(C)C)nc1C , its IC50 with O-acyltransferase (Oryctolagus cuniculus) was recorded as 120 nM

Considering CCCCCCCCCCC(C)(C)C(=O)Nc1c(C)c(N)c(C)c2c1OC(C)(C)C2 , its IC50 with O-acyltransferase (Oryctolagus cuniculus) was recorded as 59 nM

Considering CCCCN1NN=C(NC(=O)Nc2c(C(C)C)cccc2C(C)C)N1 , its IC50 with O-acyltransferase (Oryctolagus cuniculus) was recorded as 92 nM

Considering CCCCCCCCCCCCc1coc(NC(=O)Nc2c(C(C)C)cccc2C(C)C)n1 , its IC50 with O-acyltransferase (Oryctolagus cuniculus) was recorded as 63 nM

Considering Cc1cc(C)c(NC(=O)N(Cc2ccc(-c3ccccc3)o2)C2CCCCCC2)c(C)c1 , its IC50 with O-acyltransferase (Oryctolagus cuniculus) was recorded as 44 nM
